# System: leukemia cell lines
# Method description: Resazurin cell viability assay on leukemia cell lines (72 h growth inhibition, GI50)
# Assay type: cell-based
# Protocol conditions: Homo sapiens, MV4-11 cells
Test readout: GI50 (µM)

Before answering, review these 5 worked examples.
>>> readout_number("Cc1cnc(N[C@H]2CC[C@H](N)CC2)nc1-c1cnc2cc(Nc3cccnc3)ccn12")
0.558
>>> readout_number("N[C@H]1CC[C@H](Nc2ncc(F)c(-c3cnc4ccc(-c5ccc(CN6CCOCC6)cc5)cn34)n2)CC1")
0.003
>>> readout_number("N[C@H]1CC[C@H](Nc2ncc(-c3ccccc3)c(-c3cnc4ccc(-c5ccccc5)cn34)n2)CC1")
0.243
>>> readout_number("Cc1cnc(NC2CCCC(N)C2)nc1-c1cnc2ccc(Nc3cccnc3)cn12 (stereo not shown)")
0.646
>>> readout_number("COc1cnc(N[C@H]2CC[C@H](N)CC2)nc1-c1cnc2ccccn12")
0.009

[A] N[C@H]1CC[C@H](Nc2ncc(Cl)c(-c3cnc4ccc(Br)cn34)n2)CC1
[B] COc1cccc(-c2ccc3ncc(-c4nc(N[C@H]5CC[C@H](N)CC5)ncc4C)n3c2)c1
[C] COCCN[C@H]1CC[C@@H](Nc2ncc(C)c(-c3cnc4ccc(-c5ccccc5)cn34)n2)CC1
[D] N[C@H]1CC[C@H](Nc2ncc(Cl)c(-c3cnc4c(-c5ccccc5)cc(C(F)(F)F)cn34)n2)CC1
Hey, quick one: sort these by GI50, top value first please. Provide your answer as the labels ordered per the instruction. D, C, B, A
